Measured TGI accompanies every entry in the list below.
System: HOP-18 NSCLC
test-name: NCI tumour cell line growth inhibition, 48 h

- compound: "CC1(C)OC2C(O1)[C@H]1OC(C(Cl)(Cl)Cl)=N[C@H]1C(I)[C@H]2N1C(=O)c2ccccc2C1=O (stereo not given in full)"
  study-system: "HOP-18 NSCLC"
  TGI: "> 100 µM"
- compound: "COc1ccccc1C(=O)Nc1ccc(Cl)c(C(=O)OC(C)C)c1"
  study-system: "HOP-18 NSCLC"
  TGI: "> 100 µM"
- compound: "C#CCOCn1cnc2c(N)ncnc21"
  study-system: "HOP-18 NSCLC"
  TGI: "> 100 µM"
- compound: "CC(=O)OCc1ncccc1C(OC(C)=O)OC(C)=O"
  study-system: "HOP-18 NSCLC"
  TGI: "> 100 µM"
- compound: "NC(CCSCCF)C(=O)O (stereo not given)"
  study-system: "HOP-18 NSCLC"
  TGI: "> 100 µM"
- compound: "N#CC1=C(N)Oc2c(ccc3cccnc23)C1c1ccccc1 (stereo not given)"
  study-system: "HOP-18 NSCLC"
  TGI: "> 100 µM"
- compound: "O[C@]12c3ccccc3C1CCCC2N1CCOCC1 (stereo not given in full)"
  study-system: "HOP-18 NSCLC"
  TGI: "> 100 µM"
- compound: "N#CC(C(=S)Nc1ccccc1)=C1Nc2ccccc2N1"
  study-system: "HOP-18 NSCLC"
  TGI: "> 10 µM"
- compound: "C[C@@H]1C[C@@H]2C(=O)N(c3ccccc3)C(=O)[C@@H]2c2[nH]c3ccc(Br)cc3c21"
  study-system: "HOP-18 NSCLC"
  TGI: "62.4 µM"
- compound: "COc1ccc([C@H]2[C@@H]3CCc4ccccc4C3=NN2C(N)=S)cc1OC"
  study-system: "HOP-18 NSCLC"
  TGI: "> 100 µM"

====

System: UACC-257 melanoma
test-name: NCI tumour cell line growth inhibition, 48 h
Label criterion not met if TGI falls below 30 µM; label criterion met in every other case.

- molecule: "CC(=O)O[C@H]1C(=O)[C@@]2(C)[C@H]([C@H](OC(=O)c3ccccc3)[C@]3(O)C[C@H](OC(=O)[C@H](O)[C@@H](NC(=O)C(C)(O)C(C)O)c4ccccc4)C(C)=C1C3(C)C)[C@]1(OC(C)=O)CO[C@@H]1C[C@@H]2O (stereo partly drawn)"
  category: "criterion met"
- molecule: "CN1CCN(c2ccc(NC(=O)c3cncnc3Nc3ccc4c(ccn4Cc4cccc(F)c4)c3)cc2)CC1"
  category: "criterion not met"
- molecule: "COc1ccc(/C=N/NC(=O)CSc2nc(-c3ccccc3)c(-c3ccccc3)[nH]2)cc1OC"
  category: "criterion met"
- molecule: "CC(C)=CC1(C)/C(=N\\O)C(C)(CC(C)C)C(=O)N1O (stereo not drawn)"
  category: "criterion met"
- molecule: "C#CCOCn1cnc2c(N)ncnc21"
  category: "criterion met"
- molecule: "COC(=O)C1OC(SCCN)C(O)C(O)C1O (stereo not drawn)"
  category: "criterion met"
- molecule: "Nc1n[nH]c2cc(F)c([C@@H]3Nc4c(F)cc5[nH]ncc5c4[C@H]4C5CCC(C5)[C@@H]34)cc12 (stereo partly drawn)"
  category: "criterion not met"
- molecule: "CCOc1cc2cnc3c4cc(OC)c(OC)cc4ccc3c2cc1OC"
  category: "criterion met"
- molecule: "Cc1ccc(C2SCc3nc4ccccc4n32)cc1 (stereo not drawn)"
  category: "criterion met"
- molecule: "CC(C)C(=O)/C=C/c1ccc(Cl)cc1Cl"
  category: "criterion not met"
- molecule: "CCC1=C(CC2NCCc3cc(OC)c(OC)cc32)CC2c3ccccc3CCN2C1 (stereo not drawn)"
  category: "criterion met"
- molecule: "Cc1cccc(/C=N/N=C(\\N)NO)n1"
  category: "criterion met"
- molecule: "Oc1ccc(Cl)cc1C1=Nn2c(COc3ccc4c(c3)CCCC4)nnc2SC1"
  category: "criterion met"
- molecule: "COc1ccccc1NC(=O)C1=C(C)NC(C)=C(C(=O)Nc2ccccc2OC)C1c1ccc(C2C(C(=O)Nc3ccccc3OC)=C(C)NC(C)=C2C(=O)Nc2ccccc2OC)cc1"
  category: "criterion not met"
- molecule: "CN(C)c1ccc(/C=C2\\C[C@H]3[C@@H]4CC=C5C[C@@H](O)CC[C@]5(C)[C@H]4CC[C@]3(C)[C@H]2O)cc1"
  category: "criterion met"
- molecule: "CN(C)CCSC(=Nc1ccccc1)n1cccc1"
  category: "criterion met"
- molecule: "O=S(=O)(N1CCCCN(S(=O)(=O)C(F)(F)F)CCCN(S(=O)(=O)C(F)(F)F)CCCCN(S(=O)(=O)C(F)(F)F)CCCN(S(=O)(=O)C(F)(F)F)CCCCN(S(=O)(=O)C(F)(F)F)CCCN(S(=O)(=O)C(F)(F)F)CCCCN(S(=O)(=O)C(F)(F)F)CCC1)C(F)(F)F"
  category: "criterion met"
- molecule: "FC(F)(F)c1nc2c(ccc3[nH]c4c(-c5ccccc5)nccc4c32)[nH]1"
  category: "criterion met"

====

System: A498 renal
test-name: NCI tumour cell line growth inhibition, 48 h; in the data active means GI50 below about 0.43 µM; inactive means the rest
Outcomes: active, inactive

- compound: "COc1ccc(-n2nc(C(=O)NCC(=O)Nc3nc4cc(OC)ccc4s3)c3ccccc3c2=O)cc1"
  study-system: "A498 renal"
  category: "inactive"
- compound: "COc1ccc(C(=O)c2cc(C)c(OC)c(C)c2)c(OC)c1OC(=O)C(Cl)Cl"
  study-system: "A498 renal"
  category: "inactive"
- compound: "CC1=CC[C@@H]2C(=O)C=CC=C[C@H]12.[C-]#[O+].[C-]#[O+].[C-]#[O+].[Fe]"
  study-system: "A498 renal"
  category: "inactive"
- compound: "NC(N)=N/N=C/c1c(-c2cccs2)nc2n1CCS2"
  study-system: "A498 renal"
  category: "inactive"
- compound: "CCN(CC)CCC(CNc1c(C)cnc2cc(Cl)ccc12)c1ccc(Cl)c(Cl)c1 (stereo unspecified)"
  study-system: "A498 renal"
  category: "inactive"
- compound: "CCC1C[N+]2=C(c3cc(OC)c(OC)cc3CC2)c2c1cc1n2CCc2cc(OC)c(OC)cc2-1 (stereo unspecified)"
  study-system: "A498 renal"
  category: "inactive"
- compound: "CCN(CC)CCOc1ccccc1-n1c(C)ccc1-c1ccccc1"
  study-system: "A498 renal"
  category: "inactive"
- compound: "CCOC(=O)CC1C(CNC(=O)NC)OC(n2cnc3c(NC(=O)Nc4ccccc4)ncnc32)C1O[Si](C)(C)C(C)(C)C (stereo unspecified)"
  study-system: "A498 renal"
  category: "inactive"
- compound: "COc1ccc(/C=C\\c2cc(OC)c(OC)c(OC)c2)cc1N/C=C\\C(=O)c1c[nH]c2ccccc12"
  study-system: "A498 renal"
  category: "active"
- compound: "Cc1nc2sc(C(=O)Nc3cccc(Cl)c3C)c(N)c2cc1C(O)c1ccccc1 (stereo unspecified)"
  study-system: "A498 renal"
  category: "active"
- compound: "NC1=C(/C(N)=N/O)C(c2ccccc2)c2ccc3ccccc3c2O1 (stereo unspecified)"
  study-system: "A498 renal"
  category: "active"

====

System: SNB-78 CNS
test-name: NCI tumour cell line growth inhibition, 48 h

- molecule: "CC(C)=CC1(C)/C(=N\\O)C(C)(CC(C)C)C(=O)N1O (stereo not given)"
  study-system: "SNB-78 CNS"
  TGI: "> 100 µM"
- molecule: "OCC(O)C(OC1OC(CO)C(O)C(O)C1O)c1nn(-c2ccc(Cl)cc2)c2nc3cc(Cl)c(Cl)cc3nc12 (stereo not given)"
  study-system: "SNB-78 CNS"
  TGI: "> 100 µM"
- molecule: "CC1=C(C(=O)NCc2ccccc2)C(c2ccc(N(C)C)cc2)C(C(=O)NCc2ccccc2)=C(C)N1"
  study-system: "SNB-78 CNS"
  TGI: "> 100 µM"
- molecule: "Cc1c(-c2cc(-c3ccccc3)n[nH]c2=O)c2ccccc2n1C"
  study-system: "SNB-78 CNS"
  TGI: "> 100 µM"
- molecule: "FC(F)(F)c1nc2c(ccc3[nH]c4c(-c5ccccc5)nccc4c32)[nH]1"
  study-system: "SNB-78 CNS"
  TGI: "> 100 µM"
- molecule: "N#CC1=C(N)Oc2c(ccc3cccnc23)C1c1ccccc1 (stereo not given)"
  study-system: "SNB-78 CNS"
  TGI: "9.36 µM"
- molecule: "CC(=O)OCc1ncccc1C(OC(C)=O)OC(C)=O"
  study-system: "SNB-78 CNS"
  TGI: "> 100 µM"
- molecule: "O[C@]12c3ccccc3C1CCCC2N1CCOCC1 (stereo not given in full)"
  study-system: "SNB-78 CNS"
  TGI: "> 100 µM"
- molecule: "CC1(C)OC2C(O1)[C@H]1OC(C(Cl)(Cl)Cl)=N[C@H]1C(I)[C@H]2N1C(=O)c2ccccc2C1=O (stereo not given in full)"
  study-system: "SNB-78 CNS"
  TGI: "> 100 µM"
- molecule: "[N-]=[N+]=Nc1nnc(CCCCc2nnc(N=[N+]=[N-])o2)o1"
  study-system: "SNB-78 CNS"
  TGI: "> 100 µM"
